assay: Inhibition of HIV wild type integrase strand transfer activity; parameters: species or system Human immunodeficiency virus
reported_endpoint: IC50 (nM)
Numbers only, in nM.

Which value of IC50 has been reported for `Cn1c(N2CCCCS2(=O)=O)nc(C(=O)NCc2ccc(F)cc2)c(O)c1=O` in the records? 15

* * *

assay: Inhibition of HIV wild type integrase DNA complex; set-up: species or system Human immunodeficiency virus
reported_endpoint: pKi
One number for each entry, as −log10 of the molar value.

Which value of pKi has been reported for `Cn1c(N2CCCCS2(=O)=O)nc(C(=O)NCc2ccc(F)cc2)c(O)c1=O` in the records? 7.77

* * *

test: Binding affinity to HIV wild type integrase; parameters: species or system Human immunodeficiency virus
reported_endpoint: Kd
Give the number first and the unit second.

Which value of Kd has been reported for `[3H]C([3H])([3H])n1c(N2CCCCS2(=O)=O)nc(C(=O)NCc2ccc(F)cc2)c(O)c1=O` in the records? 21 nM

FYI, the data here is from ChEMBL document CHEMBL1156506.
